Reference source for all entries: PubChem BioAssay

Assay: StAR promoter reporter inhibitors, counter-screen for LRH-1 inverse agonist project, cell-based, luminescence, high throughput (AID 651611)
Settings: StAR promoter luciferase reporter counterscreen, at 3.6 µM, stronger effect = higher value
Rule: criterion met for inhibition not less than 20%, criterion not met for anything less.

| molecule | category |
| --- | --- |
| O=C(Nc1ccc([N+](=O)[O-])cc1)c1cccc([N+](=O)[O-])c1 | criterion not met |
| CCC(c1nnnn1-c1c(C)cccc1C)N1CCN(c2ccc(C(F)(F)F)cc2[N+](=O)[O-])CC1 (stereo not given) | criterion not met |
| Cc1ccc(NC(=O)COC(=O)CCC2CCCC2)c(Br)c1 | criterion not met |
| O=C(c1cc(-c2ccco2)nc2ccccc12)N(Cc1nnc(-c2ccc(Cl)cc2)o1)C1CC1 | criterion not met |
| CN(C(=O)COc1ccccc1C(=O)NCCOc1ccccc1)c1ccccc1 | criterion met |
| Nc1cccc(OCCCCCOc2cccc(N)c2)c1 | criterion not met |
| COc1ccc(Cc2c(-c3cccc(Cl)c3)nc3cc(C)c(Br)c(C)n23)c(C)c1 | criterion not met |
| Cc1cc(-c2nnc(SCC(=O)Nc3ccccc3C(F)(F)F)o2)c(C)n1-c1ccccc1 | criterion met |
| Cc1ccc(Cl)cc1NC(=O)COC(=O)CC(C)(C)C | criterion met |
| Cc1onc(-c2c(F)cccc2Cl)c1C(=O)O/N=C(\N)c1ccc([N+](=O)[O-])o1 | criterion not met |
| O=C(Nc1sc2c(c1C(=O)O)CCCCC2)c1ccccc1 | criterion not met |
| CCn1nnc(NC(=O)c2ccc([N+](=O)[O-])o2)n1 | criterion not met |
| CCOc1ccc(-c2c[n+]3c(n2-c2ccccc2)CCCCC3)cc1 | criterion met |
| Cc1nc2ccccc2n1/N=C/c1ccc([N+](=O)[O-])s1 | criterion met |
